Ref: patent US5041567A

The reader will find reported MIC values listed item by item below.
tested on: M. hyorhinis ATCC 23234; experiment: MIC against mycoplasma in vitro; type: cell-based; details: Mesomycoplasma hyorhinis, ATCC23234, 144 h
Express it in µg/mL; write the number only.

The cases that follow already have their MIC on record.
C/C(=C\c1ncc(-c2ccccc2)o1)C[C@@H]1OC[C@H](C[C@@H]2O[C@H]2[C@@H](C)[C@H](C)O)[C@@H](O)[C@H]1O	0.5
C/C(=C\c1ncc(-c2ccc(C#N)cc2)o1)C[C@@H]1OC[C@H](C[C@@H]2O[C@H]2[C@@H](C)[C@H](C)O)[C@@H](O)[C@H]1O	0.25
CSc1cccc(-c2cnc(/C=C(\C)C[C@@H]3OC[C@H](C[C@@H]4O[C@H]4[C@@H](C)[C@H](C)O)[C@@H](O)[C@H]3O)o2)c1	1

// MIC lookup, molecule = C/C(=C\c1ncc(CCCCCCCCO)o1)C[C@@H]1OC[C@H](C[C@@H]2O[C@H]2[C@@H](C)[C@H](C)O)[C@@H](O)[C@H]1O , result: 1

Measured MIC of C/C(=C\c1ncc(-c2ccc(C=O)cc2)o1)C[C@@H]1OC[C@H](C[C@@H]2O[C@H]2[C@@H](C)[C@H](C)O)[C@@H](O)[C@H]1O : 0.25

Input COc1ccc(-c2cnc(/C=C(\C)C[C@@H]3OC[C@H](C[C@@H]4O[C@H]4[C@@H](C)[C@H](C)O)[C@@H](O)[C@H]3O)o2)cc1 . Output MIC: 0.5
